Assay: Rat liver uptake of 153Gd-labeled chelates
Type: in vivo, Sprague Dawley rat
Settings: 50 μmol/kg tail vein
Give measured Area under the % inj. dose in rat liver vs time curve (AUC) from 0 to 30 min for each item. Keep answers brief.
Numbers only.

O=C(O)CN(CCN(CC(=O)O)CC(Cc1ccccc1)N(CC(=O)O)CC(=O)O)CC(=O)O (centres unmarked) : 213

Each compound below has a reported value. Please supply its Area under the % inj. dose in rat liver vs time curve (AUC) from 0 to 30 min.
1. Cc1ccc(CC(CN(CCN(CC(=O)O)CC(=O)O)CC(=O)O)N(CC(=O)O)CC(=O)O)c(C)c1 (centres unmarked)
2. CCc1ccc(CC(CN(CCN(CC(=O)O)CC(=O)O)CC(=O)O)N(CC(=O)O)CC(=O)O)cc1 (centres unmarked)
3. CCOc1ccc(C[C@@H](CN(CCN(CC(=O)O)CC(=O)O)CC(=O)O)N(CC(=O)O)CC(=O)O)cc1

1. 404
2. 469
3. 408

Look up Area under the % inj. dose in rat liver vs time curve (AUC) from 0 to 30 min for this compound: CC(C)c1ccc(CC(CN(CCN(CC(=O)O)CC(=O)O)CC(=O)O)N(CC(=O)O)CC(=O)O)cc1 (centres unmarked)
400
